Reference source: ChEMBL document CHEMBL5120823

Experiment: Hemolytic activity against BALB/c mouse erythrocyte at 100 uM measured after 2 hrs relative to control
Format: toxicity, cell-based
Settings: erythrocytes, read-out: Activity
reported_property: hemolysis at 2 h, 100 µM (%)

smi=Nc1nc([C@@H]2c3nc(N)[nH]c3C[C@H](CNC(=O)c3cc(Br)c(Br)[nH]3)[C@H]2CNC(=O)c2cc(Br)c(Br)[nH]2)c[nH]1 result_value=0.7
smi=Nc1nc([C@@H]2c3[nH]c(N)nc3C[C@H](CNC(=O)c3cc(Br)c[nH]3)[C@H]2CNC(=O)c2cc(Br)c(Br)[nH]2)c[nH]1 result_value=1.5
smi=Nc1nc([C@@H]2c3[nH]c(N)nc3C[C@H](CNC(=O)c3cc(Br)c[nH]3)[C@H]2CNC(=O)c2cc(Br)c[nH]2)c[nH]1 result_value=2.3
